# credit: the supplement of paper PMC5579334

Catalogue of relative IC50 readings, one per entry.
Test system: HS-Sch-2
Experiment: relative IC50 (inflection point of fitted dose-response curve, CellTiter-Glo viability, 72 h; top asymptote may be below 50% inhibition); higher = less potent
# value in nM; strip the unit string

INPUT: Recall the recorded relative IC50 for C=CC(=O)Nc1cc2c(Nc3ccc(F)c(Cl)c3)ncnc2cc1OCCCN1CCOCC1 with HS-Sch-2 and state it.
OUTPUT: 2530

----------
Catalogue of % inhibition readings, one per entry.
Tested on: HS-PSS
Test: % inhibition of CellTiter-Glo viability at highest tested concentration (72 h), relative to DMSO and benzethonium chloride controls; higher = more inhibition
# value in %; strip the unit string

INPUT: Need % inhibition, item COc1ccc(-c2cc3c(C)nc(N)nc3n([C@H]3CC[C@H](OCCO)CC3)c2=O)cn1 (max concentration tested 10000 nM)
OUTPUT: 70.2

INPUT: Need % inhibition, item CC(C)NC(=O)COc1cccc(-c2nc(Nc3ccc4[nH]ncc4c3)c3ccccc3n2)c1 [SLx-2119] (max concentration tested 5000 nM)
OUTPUT: 48.7

INPUT: Need % inhibition, item O=C(NOCC1CC1)c1ccc(F)c(F)c1Nc1ccc(I)cc1Cl (max concentration tested 10000 nM)
OUTPUT: 21.5

INPUT: Need % inhibition, item NC(=O)NO [Hydroxyurea] (max concentration tested 100000 nM)
OUTPUT: 9.89
